Test system: TLR4-MyD88 interaction (human), BLA complementation
method: TLR4-MyD88 association inhibitors, retest, confirmation, cell-based, HeLa CL3-4, BLA complementation, FRET ratio (AID 941);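 further: plate controls were DMSO only for no effect and clavulanic acid blocking BLA at full dose for full effect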
condition notes: CCF4 FRET ratio, at 8.4 µM
The list shows a part of the results. Activity calls are given as the source filed them.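 How the source made its calls: active means mean inhibition across three repeat runs above about 25% carried over from the earlier screen (limit read from the data); inactive means the rest.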
Select the matching outcome among yes (1) = active, no (0) = inactive

CCN(CC)c1ccc2oc(=O)c(C)nc2c1; no (0)
Cc1nc(Cl)c2oc3ccccc3c2n1; yes (1)
COC(=O)Cc1cc(=O)n(-c2nc3ccccc3s2)[nH]1; no (0)

Prompt: In this assay, the call recorded for O=C1NC(=O)C2C1C(c1ccc([N+](=O)[O-])cc1)=NN2Cc1ccccc1 (stereo unspecified) was what?
Response: yes (1)

Prompt: Write down the call the test reported for this molecule. Item: COc1ccccc1N1N=C(c2cccs2)CC1c1ccccc1 (stereo unspecified)
Response: yes (1)

Prompt: What is the recorded call for this molecule in the test? `O=C(c1ccc(Cl)cc1)c1cnc(Nc2ccccc2)s1`
Response: no (0)
